molecular target: p38a (MAPK14) (Homo sapiens); construct: tested for their influence on p38a activity using the RPE1-p38 kinase translocation reporter (KTR) line; endogenous in cells; host or cells: RPE1-p38KTR cells; assay: Single-cell p38a activity reporter assay (RPE1-p38 KTR); type: cell-based; settings: 1 μM, confirmed at 10 μM; 48 hours; RPE1 cells
Sequence (Q16539 whole entry): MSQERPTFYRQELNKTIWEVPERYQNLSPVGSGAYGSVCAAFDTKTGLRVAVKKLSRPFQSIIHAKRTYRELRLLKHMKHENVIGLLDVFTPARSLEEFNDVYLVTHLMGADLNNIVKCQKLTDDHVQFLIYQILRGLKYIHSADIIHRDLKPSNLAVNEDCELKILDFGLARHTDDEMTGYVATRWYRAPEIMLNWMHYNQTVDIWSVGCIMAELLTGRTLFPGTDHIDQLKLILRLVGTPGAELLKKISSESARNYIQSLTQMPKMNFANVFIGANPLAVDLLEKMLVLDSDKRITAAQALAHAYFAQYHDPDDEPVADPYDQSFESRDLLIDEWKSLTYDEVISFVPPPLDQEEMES
Endpoint label: p38a activity

The measured p38a activity associated with Nc1nc(Nc2ccccc2)nc2c1ncn2C1OC(CO)C(O)C1O (stereo not shown) reads potential inhibitors

The measured p38a activity associated with CCCCNc1cc(C(=O)O)cc(S(N)(=O)=O)c1Oc1ccccc1 reads potential inhibitors

The values you see were collected from patent US20230255970A1.
